- Tested on: BT-549
- METHOD_NOTES: NCI 60 antitumor screening (single dose / five doses)
- Assay type: cell-based
- MEASUREMENT_CONDITIONS: Homo sapiens, BT-549, read-out: Growth inhibition percentage (GI %)
Listed here are molecules together with their documented inhibition at 10 µM.
QUANTITY_NAME: inhibition at 10 µM (%)

>>> reported("O=[N+]([O-])c1cc(/C=N/Nc2nc(N/N=C/c3ccc(Cl)c([N+](=O)[O-])c3)nc(N3CCCCC3)n2)ccc1Cl")
2.15
>>> reported("O=[N+]([O-])c1cccc(/C=N/Nc2nc(N/N=C/c3cccc([N+](=O)[O-])c3)nc(N3CCCCC3)n2)c1")
28.2
>>> reported("O=[N+]([O-])c1cc(/C=N/Nc2nc(N/N=C/c3ccc(Cl)c([N+](=O)[O-])c3)nc(N3CCOCC3)n2)ccc1Cl")
-0.85
>>> reported("C/C(=N\\Nc1nc(N/N=C(\\C)c2ccc([N+](=O)[O-])cc2)nc(N2CCOCC2)n1)c1ccc([N+](=O)[O-])cc1")
32.7
>>> reported("O=[N+]([O-])c1cccc(/C=N/Nc2nc(N/N=C/c3cccc([N+](=O)[O-])c3)nc(N3CCOCC3)n2)c1")
11.7
